test system: CCRF-CEM; test: NCI tumour cell line growth inhibition, 48 h
Active and inactive are the calls of the source. Cut-off read from the data, not from the text of the source: active = GI50 up to about 1.1 µM and inactive = higher.
ASSAY_ENDPOINT: GI50

// solved cases for GI50 follow
{"columns": ["MOLECULE", "MEASURED_TARGET", "GI50"],
 "data": [
  ["CCc1n[nH]c(=O)n1N1C(=O)C2CCCCC2C1=O (centres undefined)", "CCRF-CEM", "> 100 µM (inactive)"],
  ["COC(=O)Cc1c([C@H]2[C@H](CC(=O)OC)c3ccccc3N2S(=O)(=O)c2ccc(C)cc2)[nH]c2ccccc12", "CCRF-CEM", "18.5 µM (inactive)"],
  ["Cc1cn(C2CC(O)C(CO)C2C)c(=O)[nH]c1=O (centres undefined)", "CCRF-CEM", "> 100 µM (inactive)"],
  ["C/C(=C\\COP(=O)(O)OP(=O)(O)O)CC/C=C(\\C)CNc1ccc([N+](=O)[O-])cc1", "CCRF-CEM", "> 100 µM (inactive)"],
  ["Cc1cccc(C)c1NC(=O)C(=O)C(C#N)c1ccccc1 (centres undefined)", "CCRF-CEM", "> 100 µM (inactive)"],
  ["Cc1ccc(-n2c(C)n[nH]c2=O)cc1", "CCRF-CEM", "> 100 µM (inactive)"]
]}

Incoming: So what does the record say about GI50 for O=C1c2ccccc2-c2nc(-c3cccnc3)cc3c2c1nc1ccccc13 ?
Outgoing: 26.5 µM (inactive)

Incoming: So what does the record say about GI50 for CCOC(=O)c1c(NC(=O)OC)c(C#N)c2n1CCCCC2 ?
Outgoing: > 100 µM (inactive)

Incoming: So what does the record say about GI50 for COC1=CC(=O)c2c(O)c3c(c(O)c2C1=O)CC(C)(O)OC3 (centres undefined) ?
Outgoing: 1.25 µM (inactive)

Incoming: So what does the record say about GI50 for COC1=CC(=O)N(C)C(O)C1(C#N)OC1OC(CO)C(O)C(O)C1O (centres undefined) ?
Outgoing: > 10 µM (inactive)

Incoming: So what does the record say about GI50 for Cc1cn(CC2(CO)CCC2)c(=O)[nH]c1=O ?
Outgoing: > 100 µM (inactive)

Incoming: So what does the record say about GI50 for O=c1ccc2ccc(O)cc2o1 ?
Outgoing: > 100 µM (inactive)

Incoming: So what does the record say about GI50 for CNS(=O)(=O)NN(C)S(=O)(=O)c1ccc(F)cc1 ?
Outgoing: > 100 µM (inactive)

Incoming: So what does the record say about GI50 for O=C1c2ccccc2N2OC3(N4CCOCC4)CCCC3C12c1ccccc1 (centres undefined) ?
Outgoing: > 100 µM (inactive)

====

# log10(GI50) per entry for HCT-15
Annotation: log10 of GI50, µM basis.

// solved cases for log10(GI50) follow
{"columns": ["STRUCTURE_AS_SMILES", "MEASURED_TARGET", "log10(GI50)"],
 "data": [
  ["O=S(=O)(N/N=C/c1ccc(/C=N/NS(=O)(=O)c2ccccc2)cc1)c1ccccc1", "HCT-15", 1.64],
  ["O=C1/C(=C/c2ccco2)N=C(c2ccccc2)N1c1ccc(S(=O)(=O)Nc2nccs2)cc1", "HCT-15", 1.46],
  ["O[C@@]12Cc3c([nH]c4ccccc34)[C@@H]3Oc4cccc5c4[C@@]31CCN(CC1CC1)[C@@H]2C5", "HCT-15", 1.26],
  ["O/N=N\\c1nc(-c2ccccn2)nc2ccccc12", "HCT-15", 0.18],
  ["Cc1nc2ccc(Cl)cc2c2c1CCO2", "HCT-15", 1.96]
]}

Incoming: So what does the record say about log10(GI50) for CN1CCN(P2(=S)Oc3ccc4ccccc4c3-c3c(ccc4ccccc34)O2)CC1 ?
Outgoing: 1.46
